Test system: Pseudomonas aeruginosa
Assay: Antimicrobial activity against Pseudomonas aeruginosa MTCC 1688 at 750 ug/ml after 24 hrs by cup plate method
Assay type: functional
Conditions: MTCC 1688, 24 h, read-out: IZ
measured.metric: zone of inhibition at 750 µg/mL (mm)
Please respond with the number in mm and leave the unit unwritten.

Req: Please report the recorded zone of inhibition at 750 µg/mL for Nc1n[nH]c2c1C(c1c(-c3ccccc3)[nH]c3ccc(Cl)cc13)C=C(c1ccc(Cl)cc1)O2 (stereo not given) .
Resp: 9

Req: Value lookup for zone of inhibition at 750 µg/mL; key = Nc1n[nH]c2c1C(c1c(-c3ccccc3)[nH]c3ccccc13)C=C(c1ccc(Cl)cc1)O2 (stereo not given)
Resp: 10

Req: So what's the measured zone of inhibition at 750 µg/mL for this one? Cc1ccc2[nH]c(-c3ccccc3)c(C3C=C(c4ccc(Cl)cc4)OC(N)=C3C#N)c2c1 (stereo not given)
Resp: 5

Req: What zone of inhibition at 750 µg/mL value was documented for this molecule, Nc1nc(=O)[nH]c2c1C(c1c(-c3ccccc3)[nH]c3ccccc13)C=C(c1ccc(Cl)cc1)O2 (stereo not given) ?
Resp: 12

Req: Return reported zone of inhibition at 750 µg/mL; argument: N#Cc1c(N)c2c(N)c3c(nc2oc1=O)OC(c1ccccc1)=CC3c1c(-c2ccccc2)[nH]c2ccccc12 (stereo not given)
Resp: 7

###

System: Pseudomonas aeruginosa
Assay: Antimicrobial activity against Pseudomonas aeruginosa MTCC 1688 at 1000 ug/ml after 24 hrs by cup plate method
Type: functional
Conditions: MTCC 1688, 24 h, read-out: IZ
measured.metric: zone of inhibition at 1000 µg/mL
Field: value (include unit after the number)

Req: Reported zone of inhibition at 1000 µg/mL for Pseudomonas aeruginosa, given Cc1ccc(C2=CC(c3c(-c4ccccc4)[nH]c4ccccc34)C(C#N)=C(N)O2)cc1 (centres undefined) ?
Resp: 6 mm

Req: Value wanted: zone of inhibition at 1000 µg/mL (Pseudomonas aeruginosa) of entry Nc1nc(=S)[nH]c2c1C(c1c(-c3ccccc3)[nH]c3ccc(Cl)cc13)C=C(c1ccccc1)O2 (centres undefined)
Resp: 5 mm

Req: Hi! What's the reported zone of inhibition at 1000 µg/mL for Cc1ccc(C2=CC(c3c(-c4ccccc4)[nH]c4ccc(Cl)cc34)c3c(N)n[nH]c3O2)cc1 (centres undefined) on Pseudomonas aeruginosa?
Resp: 13 mm

Req: Query for Pseudomonas aeruginosa: what zone of inhibition at 1000 µg/mL does the record show for Nc1n[nH]c2c1C(c1c(-c3ccccc3)[nH]c3ccc(Cl)cc13)C=C(c1ccc(Cl)cc1)O2 (centres undefined) ?
Resp: 9 mm

###

System: Escherichia coli
Assay: Antimicrobial activity against Escherichia coli MTCC 723 at 500 ug/ml after 24 hrs by cup plate method
Format: functional
Conditions: MTCC 723, 24 h, read-out: IZ
zone of inhibition at 500 µg/mL vs 9 mm: at or above is Met, below is Not met.

Req: Could you tell me if the measured zone of inhibition at 500 µg/mL of N#CC1=C(N)OC(c2ccccc2)=CC1c1c(-c2ccccc2)[nH]c2ccccc12 (stereo not given) reaches 9 mm or more?
Resp: Met

Req: Identify whether the reported zone of inhibition at 500 µg/mL of the following compound is 9 mm or greater: O=c1[nH]cnc2c1C(c1c(-c3ccccc3)[nH]c3ccc(Cl)cc13)C=C(c1ccccc1)O2 (stereo not given)
Resp: Met

Req: Check the entry Nc1n[nH]c2c1C(c1c(-c3ccccc3)[nH]c3ccccc13)C=C(c1ccccc1)O2 (stereo not given) : does zone of inhibition at 500 µg/mL equal or exceed 9 mm?
Resp: Met

Req: Is reported zone of inhibition at 500 µg/mL greater than or equal to 9 mm here: Nc1nc(=O)[nH]c2c1C(c1c(-c3ccccc3)[nH]c3ccccc13)C=C(c1ccc(Cl)cc1)O2 (stereo not given)
Resp: Met

Req: Assess whether reported zone of inhibition at 500 µg/mL for Nc1nc(=S)[nH]c2c1C(c1c(-c3ccccc3)[nH]c3ccc(Cl)cc13)C=C(c1ccc(Cl)cc1)O2 (stereo not given) sits at 9 mm or higher.
Resp: Met

Req: Decide: zone of inhibition at 500 µg/mL of Cc1ccc(C2=CC(c3c(-c4ccccc4)[nH]c4ccc(Cl)cc34)c3c(nc[nH]c3=O)O2)cc1 (stereo not given) >= 9 mm?
Resp: Not met

Req: Is zone of inhibition at 500 µg/mL for Cc1ccc(C2=CC(c3c(-c4ccccc4)[nH]c4ccc(C)cc34)c3c(nc[nH]c3=O)O2)cc1 (stereo not given) at or above 9 mm?
Resp: Not met

###

System: Aspergillus oryzae
Experiment: Antimicrobial activity against Aspergillus oryzae MTCC 3567 at 1000 ug/ml after 72 hrs by cup plate method
Assay type: functional
Details: MTCC 3567, 72 h, read-out: IZ
Classification field: enter TRUE for zone of inhibition at 1000 µg/mL values not below 9 mm, FALSE for values below it.

Req: Reported zone of inhibition at 1000 µg/mL at or above 9 mm? Cc1ccc(C2=CC(c3c(-c4ccccc4)[nH]c4ccc(Cl)cc34)C(C#N)=C(N)O2)cc1 (stereo not given)
Resp: FALSE

Req: Reported zone of inhibition at 1000 µg/mL reaches at least 9 mm for Cc1ccc(C2=CC(c3c(-c4ccccc4)[nH]c4ccccc34)c3c(nc4oc(=O)c(C#N)c(N)c4c3N)O2)cc1 (stereo not given) ?
Resp: FALSE

Req: Form field: zone of inhibition at 1000 µg/mL at least 9 mm? Entry: `OC(Cn1cncn1)(Cn1cncn1)c1ccc(F)cc1F`
Resp: TRUE

Req: Determine whether measured zone of inhibition at 1000 µg/mL meets or exceeds 9 mm for Nc1n[nH]c2c1C(c1c(-c3ccccc3)[nH]c3ccccc13)C=C(c1ccc(Cl)cc1)O2 (stereo not given)
Resp: TRUE

###

Test system: Aspergillus terreus
Experiment: Antimicrobial activity against Aspergillus terreus MTCC 1782 at 500 ug/ml after 72 hrs by cup plate method
Assay type: functional
Details: MTCC 1782, 72 h, read-out: IZ
measured.metric: zone of inhibition at 500 µg/mL (mm)
State just the number; it will be interpreted in mm.

Req: Entry Cc1ccc2[nH]c(-c3ccccc3)c(C3C=C(c4ccc(Cl)cc4)Oc4nc5oc(=O)c(C#N)c(N)c5c(N)c43)c2c1 (stereo not drawn) has what zone of inhibition at 500 µg/mL?
Resp: 10

Req: I am curious: what zone of inhibition at 500 µg/mL value has been reported for `OC(Cn1cncn1)(Cn1cncn1)c1ccc(F)cc1F` ?
Resp: 13

Req: # lookup: zone of inhibition at 500 µg/mL of Cc1ccc(C2=CC(c3c(-c4ccccc4)[nH]c4ccc(C)cc34)C(C#N)=C(N)O2)cc1 (stereo not drawn)
Resp: 0

Req: Which value of zone of inhibition at 500 µg/mL has been reported for Cc1ccc(C2=CC(c3c(-c4ccccc4)[nH]c4ccc(C)cc34)c3c(N)n[nH]c3O2)cc1 (stereo not drawn) in the records?
Resp: 0

Req: Form field: reported zone of inhibition at 500 µg/mL of Cc1ccc(C2=CC(c3c(-c4ccccc4)[nH]c4ccc(C)cc34)c3c(N)nc(=O)[nH]c3O2)cc1 (stereo not drawn)
Resp: 9

Req: I am curious: what zone of inhibition at 500 µg/mL value has been reported for Cc1ccc2[nH]c(-c3ccccc3)c(C3C=C(c4ccccc4)Oc4[nH]nc(N)c43)c2c1 (stereo not drawn) ?
Resp: 9

Req: Suppose we examine the compound N#Cc1c(N)c2c(N)c3c(nc2oc1=O)OC(c1ccccc1)=CC3c1c(-c2ccccc2)[nH]c2ccc(Cl)cc12 (stereo not drawn) ; what zone of inhibition at 500 µg/mL value has been reported?
Resp: 3

Req: # input compound: Cc1ccc2[nH]c(-c3ccccc3)c(C3C=C(c4ccccc4)Oc4nc[nH]c(=O)c43)c2c1 (stereo not drawn) ; wanted: its zone of inhibition at 500 µg/mL
Resp: 4

###

Test system: Escherichia coli
Assay: Antimicrobial activity against Escherichia coli MTCC 723 at 500 ug/ml after 24 hrs by cup plate method
Type: functional
Details: MTCC 723, 24 h, read-out: IZ
measured.metric: zone of inhibition at 500 µg/mL (mm)
Report the figure in mm without appending any unit label.

Req: Fill in: zone of inhibition at 500 µg/mL of N#Cc1c(N)c2c(N)c3c(nc2oc1=O)OC(c1ccccc1)=CC3c1c(-c2ccccc2)[nH]c2ccc(Cl)cc12 (stereo not drawn) is ___
Resp: 10

Req: zone of inhibition at 500 µg/mL lookup needed for Cc1ccc(C2=CC(c3c(-c4ccccc4)[nH]c4ccc(Cl)cc34)C(C#N)=C(N)O2)cc1 (stereo not drawn) , thanks.
Resp: 10

Req: Given the compound Cc1ccc2[nH]c(-c3ccccc3)c(C3C=C(c4ccccc4)Oc4nc5oc(=O)c(C#N)c(N)c5c(N)c43)c2c1 (stereo not drawn) , what is its reported zone of inhibition at 500 µg/mL?
Resp: 10

Req: Field request: zone of inhibition at 500 µg/mL | item: Nc1nc(=S)[nH]c2c1C(c1c(-c3ccccc3)[nH]c3ccccc13)C=C(c1ccc(Cl)cc1)O2 (stereo not drawn)
Resp: 10

Req: Would you kindly share the measured zone of inhibition at 500 µg/mL for Nc1nc(=O)[nH]c2c1C(c1c(-c3ccccc3)[nH]c3ccc(Cl)cc13)C=C(c1ccccc1)O2 (stereo not drawn) ?
Resp: 10

Req: Would you mind telling me what zone of inhibition at 500 µg/mL value was observed for Nc1nc(=S)[nH]c2c1C(c1c(-c3ccccc3)[nH]c3ccc(Cl)cc13)C=C(c1ccccc1)O2 (stereo not drawn) ?
Resp: 10

Req: Record request: zone of inhibition at 500 µg/mL value, item Cc1ccc(C2=CC(c3c(-c4ccccc4)[nH]c4ccc(Cl)cc34)c3c(N)nc(=S)[nH]c3O2)cc1 (stereo not drawn)
Resp: 10

Req: Given the compound Cc1ccc(C2=CC(c3c(-c4ccccc4)[nH]c4ccccc34)C(C#N)=C(N)O2)cc1 (stereo not drawn) , what is its reported zone of inhibition at 500 µg/mL?
Resp: 10
